Target: Histone-lysine N-methyltransferase EHMT2 (Homo sapiens, UniProt Q96KQ7)
Sequence (Q96KQ7 whole entry): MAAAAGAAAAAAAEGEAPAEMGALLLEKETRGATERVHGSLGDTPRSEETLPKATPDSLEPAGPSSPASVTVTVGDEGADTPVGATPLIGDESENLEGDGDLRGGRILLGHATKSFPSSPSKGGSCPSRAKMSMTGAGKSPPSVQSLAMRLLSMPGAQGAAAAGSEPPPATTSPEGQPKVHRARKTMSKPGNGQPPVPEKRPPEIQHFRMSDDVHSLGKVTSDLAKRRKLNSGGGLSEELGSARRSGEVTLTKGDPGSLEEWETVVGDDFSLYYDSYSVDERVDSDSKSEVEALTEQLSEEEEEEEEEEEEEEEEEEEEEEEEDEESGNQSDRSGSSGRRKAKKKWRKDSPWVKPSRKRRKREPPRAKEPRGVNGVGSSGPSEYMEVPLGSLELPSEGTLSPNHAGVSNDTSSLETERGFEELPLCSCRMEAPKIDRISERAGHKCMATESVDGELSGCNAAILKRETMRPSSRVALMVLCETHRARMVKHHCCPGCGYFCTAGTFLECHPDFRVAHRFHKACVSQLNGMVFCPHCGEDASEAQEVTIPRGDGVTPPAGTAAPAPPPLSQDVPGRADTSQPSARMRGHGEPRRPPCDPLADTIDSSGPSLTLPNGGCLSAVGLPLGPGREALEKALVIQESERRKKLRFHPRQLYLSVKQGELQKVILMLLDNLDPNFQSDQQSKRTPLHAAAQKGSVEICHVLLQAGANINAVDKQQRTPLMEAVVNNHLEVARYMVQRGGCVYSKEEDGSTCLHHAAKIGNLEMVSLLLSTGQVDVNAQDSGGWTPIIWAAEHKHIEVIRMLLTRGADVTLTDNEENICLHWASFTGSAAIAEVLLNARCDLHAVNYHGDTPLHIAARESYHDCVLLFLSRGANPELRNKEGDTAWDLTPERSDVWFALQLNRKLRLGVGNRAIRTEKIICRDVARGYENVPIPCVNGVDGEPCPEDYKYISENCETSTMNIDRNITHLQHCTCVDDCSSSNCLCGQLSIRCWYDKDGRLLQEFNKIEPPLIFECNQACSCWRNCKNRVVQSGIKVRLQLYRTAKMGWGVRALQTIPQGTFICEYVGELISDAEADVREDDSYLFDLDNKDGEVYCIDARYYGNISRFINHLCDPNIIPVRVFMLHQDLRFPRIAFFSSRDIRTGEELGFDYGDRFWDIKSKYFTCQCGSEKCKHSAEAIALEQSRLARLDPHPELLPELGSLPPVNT
Experiment: Inhibition of protein lysine methyltransferase G9a (unknown origin) by ELISA assay
measurementLabel: IC50

Query block: Recorded IC50 for CN1C(=O)[C@H]2C[C@]3([C@]45C[C@@H]6C(=O)N(C)[C@H](CO)C(=O)N6[C@H]4Nc4ccccc45)c4ccccc4N[C@@H]3N2C(=O)[C@H]1CO with Histone-lysine N-methyltransferase EHMT2 (Homo sapiens, UniProt Q96KQ7), please?
Result block: > 50 µM
